Would you mind telling me the reported MIC of each entry?
tested on: Serratia marcescens
Answers are plain numbers, in µg/mL.

Answered examples (3):
CN[C@@H]1[C@@H](O)[C@@H](O[C@H]2[C@H](N)C[C@H](N)[C@@H](O[C@H]3O[C@H]([C@@H](C)N)CC[C@H]3N)C2(F)F)OC[C@]1(C)O    0.78
NC[C@H]1O[C@H](O[C@@H]2[C@@H](N)C[C@@H](N)[C@H](O[C@H]3O[C@H](CO)[C@@H](O)[C@H](N)[C@H]3O)C2(F)F)[C@H](N)[C@@H](O)[C@@H]1O    6.25
CN[C@@H]1[C@@H](O)[C@@H](O[C@H]2[C@H](N)C[C@H](N)[C@@H](O[C@H]3O[C@H](CN)CC[C@H]3N)C2(F)F)OC[C@]1(C)O    6.25

We now examine a further compound.
Supply recorded MIC for CN[C@@H]1[C@@H](O)[C@@H](O[C@H]2[C@H](NC(=O)[C@@H](O)CCN)C[C@H](N)[C@@H](O[C@H]3O[C@H]([C@@H](C)N)CC[C@H]3N)C2(F)F)OC[C@]1(C)O here.
3.12
